As shown below, each of these compounds has a reported Activity value.
- Test system: Escherichia coli
- ASSAY OVERVIEW: Antibacterial activity against Escherichia coli ATCC 25922 assessed as initial concentration required for appearance of zone of inhibition after 24 hr
- Type: functional

>  <COMPOUND>
O=C(NCCn1c(-c2ccccc2)nc2ccc([N+](=O)[O-])cc2c1=O)Nc1cc(C(F)(F)F)cc(C(F)(F)F)c1

>  <ENDPOINT UNIT>
µg/mL

>  <Activity>
100

$$$$
>  <COMPOUND>
CC1CCC(NC(=O)NCCn2c(-c3ccccc3)nc3ccc([N+](=O)[O-])cc3c2=O)CC1 (centres undefined)

>  <ENDPOINT UNIT>
µg/mL

>  <Activity>
70

$$$$
>  <COMPOUND>
O=C(O)c1cn(C2CC2)c2cc(N3CCNCC3)c(F)cc2c1=O

>  <ENDPOINT UNIT>
µg/mL

>  <Activity>
20

$$$$
>  <COMPOUND>
CSc1ccc(NC(=O)NCCn2c(-c3ccccc3)nc3ccc([N+](=O)[O-])cc3c2=O)cc1

>  <ENDPOINT UNIT>
µg/mL

>  <Activity>
40

$$$$
>  <COMPOUND>
Cc1ccccc1NC(=O)NCCn1c(-c2ccccc2)nc2ccc([N+](=O)[O-])cc2c1=O

>  <ENDPOINT UNIT>
µg/mL

>  <Activity>
40

$$$$
>  <COMPOUND>
O=C(NCCn1c(-c2ccccc2)nc2ccc([N+](=O)[O-])cc2c1=O)Nc1ccc(Cl)cc1

>  <ENDPOINT UNIT>
µg/mL

>  <Activity>
70

$$$$
>  <COMPOUND>
O=C(NCCn1c(-c2ccccc2)nc2ccc([N+](=O)[O-])cc2c1=O)Nc1ccccc1Cl

>  <ENDPOINT UNIT>
µg/mL

>  <Activity>
70

$$$$
>  <COMPOUND>
Cc1ccc(NC(=O)NCCn2c(-c3ccccc3)nc3ccc([N+](=O)[O-])cc3c2=O)cc1

>  <ENDPOINT UNIT>
µg/mL

>  <Activity>
40

$$$$
>  <COMPOUND>
O=C(NCCn1c(-c2ccccc2)nc2ccc([N+](=O)[O-])cc2c1=O)NC1CCCCC1

>  <ENDPOINT UNIT>
µg/mL

>  <Activity>
70

$$$$
